# assay_explanation: Human HepG2 cell viability assay in 384 well format
# Type: toxicity, cell-based
# Design: dose 125 nL, time 70.5 hour; concentration not given beside the values
# test_conditions: HepG2 cells, read-out: Inhibition
Quick reference for cytotoxicity at 70.5 h among some compounds
Give just the number in %; leave the unit off.

Examples with their reported cytotoxicity at 70.5 h follow.
CN(C)S(=O)(=O)N1C[C@@H]2COC[C@]2(COc2ccccn2)C1 | -17.2
c1ccc(OCc2nnc3n2CCN(CC2CC2)C3)nc1 | -13.3
COc1cccc(CNC(=O)CCC2=Nc3ccccc3S(=O)(=O)N2)c1 | -1.77
COc1cc(C(=O)N(C)Cc2cc(C(=O)O)c(C)o2)cc(OC)c1OC | -7.77
N#Cc1ccc(OCCNCCn2cccn2)cc1 | -10.2
CCc1nc(NS(=O)(=O)c2ccc(F)cc2C)no1 | -5.01
CS(=O)(=O)NC1CCN(C(=O)c2ccc(F)cc2)CC1 | -3.98
COCC[C@]1(O)CCN(CC(=O)NCc2ccccn2)C[C@H]1C | 5.51
CCNC(=O)c1ccnc(NCC2COc3cc(OC)ccc3C2)c1 (configuration not stated) | -3.26
O=C(c1cscn1)N1CC[C@]2(C[C@@H](OCCN3CCCC3)CO2)C1 | -6.54

Field cytotoxicity at 70.5 h (entry Cc1ccc(CNC(=O)c2nc3c(n2C)CCN(c2ncccn2)C3)o1 ) reads -1.28

cytotoxicity at 70.5 h measured on CCc1nc(N2CCC3(CC2)CC(=O)N(Cc2ccc(Cl)cc2)C3)no1 = -10.7

Measured cytotoxicity at 70.5 h of CC(C)n1ccnc1CN1CCCN(C(=O)c2cccnc2O)CC1 : 23.5

// sample CCCC(=O)N1CCC(c2nc(O)c3c(n2)CCN(C2CCCC2)C3)C1 (configuration not stated) , its cytotoxicity at 70.5 h was -0.72

Lookup result for Cn1ncnc1CNC1CCCc2cc(F)ccc21 (configuration not stated) ; measured cytotoxicity at 70.5 h: -11.4

Short answer for O=C(NCc1cscn1)NC1CCN(c2ncccc2Cl)C1 (configuration not stated) : cytotoxicity at 70.5 h was -2.49

cytotoxicity at 70.5 h recorded for this compound, CCN1CCC(NC(=O)CN2CCCCC2Cn2cc(C)cn2)CC1 (configuration not stated) , is 53.1

Record summary for O=C([C@@H]1C[C@@H]2CCN(CCc3ccccc3)C[C@H]2O1)N1CCCC1 : reported cytotoxicity at 70.5 h = -3.84

Cc1nc2ccc(C(=O)N3C[C@@H](O)[C@H](N4CCOCC4)C3)cc2[nH]1 yielded cytotoxicity at 70.5 h of 12

Measured cytotoxicity at 70.5 h of CCOc1ccnc(NCCc2nc(C)cc(=O)[nH]2)n1 : -2.38
